- Species: Canis familiaris
- measurement notes: Relative affinity compared to substance P was measured in the dog carotid artery.
- Type: functional, Canis lupus familiaris
property label: RA
# answer = number (no unit)

As a guide, the following entries are already answered.
test smiles	RA
CSCC[C@H](NC(=O)[C@H](CC(C)C)NC(=O)CNC(=O)[C@H](CC(C)C)NC(=O)[C@H](Cc1ccccc1)NC(=O)[C@H](CCC(N)=O)NC(=O)[C@H](CCC(N)=O)NC(=O)[C@@H]1CCCN1C(=O)[C@H](CCCCN)NC(=O)[C@@H]1CCCN1C(=O)[C@@H](N)CCCN=C(N)N)C(N)=O	64
CSCC[C@H](NC(=O)[C@H](CC(C)C)NC(=O)CNC(=O)[C@H](Cc1ccccc1)NC(=O)[C@H](Cc1c[nH]c2ccccc12)NC(=O)[C@H](CCC(N)=O)NC(=O)[C@H](CCC(N)=O)NC(=O)[C@@H]1CCCN1C(=O)[C@H](CCCCN)NC(=O)[C@@H]1CCCN1C(=O)[C@@H](N)CCCN=C(N)N)C(N)=O	37.1
CSCC[C@H](NC(=O)[C@H](CC(C)C)NC(=O)CNC(=O)[C@@H](Cc1c[nH]c2ccccc12)NC(=O)[C@H](Cc1ccccc1)NC(=O)[C@H](CCC(N)=O)NC(=O)[C@H](CCC(N)=O)NC(=O)[C@@H]1CCCN1C(=O)[C@H](CCCCN)NC(=O)[C@@H]1CCCN1C(=O)[C@@H](N)CCCN=C(N)N)C(N)=O	0.2

// switching to the query compound
Ask: Please report the measured RA for CSCC[C@H](NC(=O)[C@H](CC(C)C)NC(=O)CNC(=O)[C@H](Cc1ccccc1)NC(=O)[C@H](CC1CCCCC1)NC(=O)[C@H](CCC(N)=O)NC(=O)[C@H](CCC(N)=O)NC(=O)[C@@H]1CCCN1C(=O)[C@H](CCCCN)NC(=O)[C@@H]1CCCN1C(=O)[C@@H](N)CCCN=C(N)N)C(N)=O
Reply: 6.4
